target.desc: AKT2 (Homo sapiens, UniProt P31751)
Sequence (P31751 whole entry): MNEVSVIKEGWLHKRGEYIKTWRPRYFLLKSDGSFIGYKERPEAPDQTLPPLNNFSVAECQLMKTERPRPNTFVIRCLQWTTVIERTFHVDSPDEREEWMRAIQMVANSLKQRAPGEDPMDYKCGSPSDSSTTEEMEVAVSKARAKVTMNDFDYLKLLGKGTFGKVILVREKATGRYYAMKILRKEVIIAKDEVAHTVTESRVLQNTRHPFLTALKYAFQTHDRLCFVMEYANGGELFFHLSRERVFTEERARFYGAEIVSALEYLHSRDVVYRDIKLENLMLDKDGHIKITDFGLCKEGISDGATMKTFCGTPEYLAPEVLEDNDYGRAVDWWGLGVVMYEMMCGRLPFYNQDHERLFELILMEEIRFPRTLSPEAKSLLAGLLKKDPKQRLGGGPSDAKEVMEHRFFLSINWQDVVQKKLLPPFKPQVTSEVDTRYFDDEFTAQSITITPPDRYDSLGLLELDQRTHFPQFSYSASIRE
test.description: Live cell target engagement by NanoBRET competitive probe displacement, AKT2
reported.conditions: transfected HEK293 cells, 2 h at 37° C., read-out: AKT2 IC50: GeoMean IC50
Description: Determining live cell AKT1 E17K, AKT1 WT, and AKT2 target engagement by NanoBRET competitive probe displacement. Live cell target engagement assays were performed as described (Vasta, J. D. et al. Cell Chem Biol 2018, 25(11), 206-214). […] After incubation for 2 h at 37° C., luciferase substrate and extracellular luciferase inhibitor were added to all wells, and luminescent intensity at 460 nm and 600 nm were measured on a multimode plate-reader. […]
measured.metric: IC50

Solved cases below.
[[record]]
compound = "Nc1ncccc1-c1nc2ccc(-c3nccs3)nc2n1-c1ccc2c(c1)CC[C@@H]2NC(=O)c1cc(C=O)c(O)cc1F"
target_desc = "AKT2 (Homo sapiens, UniProt P31751)"
recorded_result = "10 to 100 nM"

[[record]]
compound = "N#Cc1cc(O)c(C=O)cc1C(=O)N[C@H]1CCc2cc(-n3c(-c4cccnc4N)nc4ccc(-n5cccn5)nc43)ccc21"
target_desc = "AKT2 (Homo sapiens, UniProt P31751)"
recorded_result = "≥ 2000 nM"

[[record]]
compound = "COc1cc2nc(-c3cccnc3N)n(-c3ccc4c(c3)CC[C@@H]4NC(=O)c3ccc(O)c(C=O)c3)c2nc1-n1cccn1"
target_desc = "AKT2 (Homo sapiens, UniProt P31751)"
recorded_result = "100 to 2000 nM"

[[record]]
compound = "Nc1ncccc1-c1nc2c(Cl)cc(-n3cccn3)nc2n1-c1ccc2c(c1)CC[C@@H]2NC(=O)c1ccc(O)c(C=O)c1"
target_desc = "AKT2 (Homo sapiens, UniProt P31751)"
recorded_result = "100 to 2000 nM"

[[record]]
compound = "Nc1ncccc1-c1nc2cccnc2n1-c1ccc2c(c1)CC[C@@H]2NC(=O)c1ccc(O)c(C=O)c1"
target_desc = "AKT2 (Homo sapiens, UniProt P31751)"
recorded_result = "≥ 2000 nM"

[[record]]
compound = "Cc1cc(-c2nccs2)nc2c1nc(-c1cccnc1N)n2-c1ccc2c(c1)CC[C@@H]2NC(=O)c1ccc(O)c(C=O)c1"
target_desc = "AKT2 (Homo sapiens, UniProt P31751)"
recorded_result = "10 to 100 nM"


[Q] Provide IC50, system AKT2 (Homo sapiens, UniProt P31751), entry "Nc1ncccc1-c1nc2ccc(-n3cccn3)nc2n1-c1ccc2c(c1)CC[C@@H]2NC(=O)c1cc(Cl)c(O)c(C=O)c1"
[A] 100 to 2000 nM

[Q] Provide IC50, system AKT2 (Homo sapiens, UniProt P31751), entry "COc1cc(C(=O)N[C@H]2CCc3cc(-n4c(-c5cccnc5N)nc5ccc(-c6ccccc6)nc54)ccc32)cc(C=O)c1O"
[A] 100 to 2000 nM

[Q] Provide IC50, system AKT2 (Homo sapiens, UniProt P31751), entry "Cc1cnn(-c2ccc3nc(-c4cccnc4N)n(-c4ccc5c(c4)CC[C@@H]5NC(=O)c4ccc(O)c(C=O)c4)c3n2)c1"
[A] 100 to 2000 nM

[Q] Provide IC50, system AKT2 (Homo sapiens, UniProt P31751), entry "Nc1ncccc1-c1nc2ccc(-c3ccn(C(F)F)n3)nc2n1-c1ccc2c(c1)CC[C@@H]2NC(=O)c1cc(C=O)c(O)cc1F"
[A] 100 to 2000 nM

[Q] Provide IC50, system AKT2 (Homo sapiens, UniProt P31751), entry "Nc1ncccc1-c1nc2ccc(C3CC3)nc2n1-c1ccc2c(c1)CC[C@@H]2NC(=O)c1ccc(O)c(C=O)c1"
[A] ≥ 2000 nM

[Q] Provide IC50, system AKT2 (Homo sapiens, UniProt P31751), entry "Nc1ncccc1-c1nc2ccc(-c3ccn(C(F)F)n3)nc2n1-c1ccc2c(c1)CC[C@@H]2NC(=O)c1ccc(O)c(C=O)c1"
[A] 100 to 2000 nM

[Q] Provide IC50, system AKT2 (Homo sapiens, UniProt P31751), entry "C#Cc1ccc(C(=O)N[C@H]2CCc3cc(-n4c(-c5cccnc5N)nc5ccc(-n6cccn6)nc54)ccc32)cc1C=O"
[A] 10 to 100 nM

[Q] Provide IC50, system AKT2 (Homo sapiens, UniProt P31751), entry "COCc1cc(-n2cccn2)nc2c1nc(-c1cccnc1N)n2-c1ccc2c(c1)CC[C@@H]2NC(=O)c1ccc(O)c(C=O)c1"
[A] 100 to 2000 nM

* * *

compounds and their reported pIC50
System: LAPC4 prostate cancer cells, which express the AKT1 E17K allele
test.description: Antiproliferative effects in LAPC4 cells (CellTiter Glo, 72 h)
Assay type: cell-based
reported.conditions: Homo sapiens, LAPC4, 72 h, read-out: LAPC4 proliferation IC50: GeoMean IC50
pIC50: −log10 of the molar value.

[Q] Provide pIC50, system LAPC4 prostate cancer cells, which express the AKT1 E17K allele, entry "Nc1ncccc1-c1nc2ccc(-n3cccn3)nc2n1-c1ccc2c(c1)CC[C@@H]2Nc1n[nH]c2c(C=O)cccc12"
[A] 5.70 to 7.00

[Q] Provide pIC50, system LAPC4 prostate cancer cells, which express the AKT1 E17K allele, entry "Nc1ncccc1-c1nc2ccc(-n3ccc(Cl)n3)nc2n1-c1ccc2c(c1)CC[C@@H]2NC(=O)c1ccc(O)c(C=O)c1"
[A] 5.70 to 7.00

[Q] Provide pIC50, system LAPC4 prostate cancer cells, which express the AKT1 E17K allele, entry "COc1ccc2nc(-c3cccnc3N)n(-c3ccc4c(c3)CC[C@@H]4NC(=O)c3ccc(O)c(C=O)c3)c2n1"
[A] 5.70 to 7.00

[Q] Provide pIC50, system LAPC4 prostate cancer cells, which express the AKT1 E17K allele, entry "CN(C)C(=O)Nc1ccc(C(=O)N[C@H]2CCc3cc(-n4c(-c5cccnc5N)nc5ccc(-n6ccc(F)n6)nc54)ccc32)cc1C=O"
[A] 7.00 to 8.00

[Q] Provide pIC50, system LAPC4 prostate cancer cells, which express the AKT1 E17K allele, entry "Cc1cc(-n2nccn2)nc2c1nc(-c1cccnc1N)n2-c1ccc2c(c1)CC[C@@H]2NC(=O)c1ccc(O)c(C=O)c1"
[A] 7.00 to 8.00

[Q] Provide pIC50, system LAPC4 prostate cancer cells, which express the AKT1 E17K allele, entry "Cc1cc(-c2ncco2)nc2c1nc(-c1cccnc1N)n2-c1ccc2c(c1)CC[C@@H]2NC(=O)c1ccc(O)c(C=O)c1"
[A] 7.00 to 8.00

* * *

compounds and their reported IC50
target.desc: AKT1 WT (Homo sapiens, UniProt P31749)
Sequence (P31749 whole entry): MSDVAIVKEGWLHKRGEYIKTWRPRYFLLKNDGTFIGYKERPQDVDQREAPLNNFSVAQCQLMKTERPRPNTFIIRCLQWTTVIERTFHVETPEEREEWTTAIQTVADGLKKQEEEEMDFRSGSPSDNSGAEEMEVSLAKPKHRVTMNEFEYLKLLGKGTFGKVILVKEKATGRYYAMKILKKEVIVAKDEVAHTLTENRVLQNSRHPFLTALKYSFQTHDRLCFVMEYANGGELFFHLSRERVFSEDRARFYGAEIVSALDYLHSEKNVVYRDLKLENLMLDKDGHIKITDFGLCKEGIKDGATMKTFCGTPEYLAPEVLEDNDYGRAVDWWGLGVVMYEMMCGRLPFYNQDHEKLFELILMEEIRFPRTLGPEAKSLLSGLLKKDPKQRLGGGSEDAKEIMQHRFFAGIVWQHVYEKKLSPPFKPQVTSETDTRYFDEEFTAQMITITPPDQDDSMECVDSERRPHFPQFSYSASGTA
test.description: Live cell target engagement by NanoBRET competitive probe displacement, AKT1 WT
reported.conditions: transfected HEK293 cells, 2 h at 37° C., read-out: AKT1 WT IC50: GeoMean IC50

[[record]]
smiles_input = "Nc1ccn(-c2ccc3nc(-c4cccnc4N)n(-c4ccc5c(c4)CC[C@@H]5NC(=O)c4ccc(O)c(C=O)c4)c3n2)n1"
measured_metric = "IC50"
recorded_result = "0.1 to 2 µM"

[[record]]
smiles_input = "Cc1nnc(-c2ccc3nc(-c4cccnc4N)n(-c4ccc5c(c4)CC[C@@H]5NC(=O)c4ccc(O)c(C=O)c4)c3n2)s1"
measured_metric = "IC50"
recorded_result = "0.01 to 0.1 µM"


[Q] Let me know recorded IC50 for "Cc1cc(-n2ccc(F)n2)nc2c1nc(-c1cccnc1N)n2-c1ccc2c(c1)CC[C@@H]2NC(=O)c1ccc(O)c(C=O)c1" , thanks.
[A] 0.01 to 0.1 µM

* * *

target.desc: AKT1 E17K (Homo sapiens, UniProt P31749, E17K)
Sequence (P31749 whole entry E17K): as the sequence (P31749 whole entry) above, with E17K counted along it
test.description: Live cell target engagement by NanoBRET competitive probe displacement, AKT1 E17K
reported.conditions: transfected HEK293 cells, 2 h at 37° C., read-out: AKT1 E17K IC50: GeoMean IC50
measured.metric: IC50

Solved cases below.
[[record]]
compound = "Nc1ncccc1-c1nc2ccc(-c3ncco3)nc2n1-c1ccc2c(c1)CC[C@@H]2NC(=O)c1cc(C=O)c(O)cc1F [Example 151]"
recorded_result = "< 10 nM"

[[record]]
compound = "Nc1ncccc1-c1nc2ccc(-n3cc(CO)cn3)nc2n1-c1ccc2c(c1)CC[C@@H]2NC(=O)c1cc(C=O)c(O)cc1F [Example 138]"
recorded_result = "10 to 100 nM"


Please examine the following record next.
[Q] Let me know recorded IC50 for Cc1cc(O)c(C=O)cc1C(=O)N[C@H]1CCc2cc(-n3c(-c4cccnc4N)nc4ccc(-n5cccn5)nc43)ccc21 [Example 149] , thanks.
[A] 10 to 100 nM

* * *

compounds and their reported pIC50
Test system: LAPC4 prostate cancer cells, which express the AKT1 E17K allele
test.description: Antiproliferative effects in LAPC4 cells (CellTiter Glo, 72 h)
Format: cell-based
reported.conditions: Homo sapiens, LAPC4, 72 h, read-out: LAPC4 proliferation IC50: GeoMean IC50
pIC50: −log10 of the molar value.

[Q] Let me know recorded pIC50 for "Nc1ncccc1-c1nc2ccc(-c3ccccc3)nc2n1-c1ccc2c(c1)CC[C@@H]2NC(=O)c1ccc(NC(=O)N2CCOCC2)c(C=O)c1" , thanks.
[A] 5.70 to 7.00
